tested on: RPMI-8226 leukemia; experiment: NCI tumour cell line growth inhibition, 48 h
Give TGI for every item shown.

Annotate the compound O=C(Nc1cccc2ccccc12)c1cc2ccccc2cc1O with its measured TGI.
9.22 µM

Complete the entry with TGI for CC(=O)/C=C/c1ccc(N(C)Cc2ccc(C(C)(C)C)cc2)cc1
237 µM

Look up TGI of COc1ccc2cc(C(=O)/C=C/c3ccccc3OC)ccc2c1 and report it.
10.6 µM

Retrieve TGI measured for COC(=O)CCC(=O)C(C#N)c1ccc(Cl)cc1Cl (stereo not given) and print it.
> 100 µM

Indicate its recorded TGI; the compound in question is Cc1ccc(OCCn2cc(Nc3ccccc3)c(=O)[nH]c2=O)cc1
> 100 µM

Please report the measured TGI for COc1ccc(C2C3=C(CCCC3=O)N(c3ccccc3)C3=C2C(=O)CCC3)cc1
> 100 µM

Consider the compound CC(=O)O[C@H]1C(=O)[C@@]2(C)[C@H]([C@H](OC(=O)c3ccncc3)[C@]3(O)C[C@H](OC(=O)[C@H](O)[C@@H](NC(=O)c4ccccc4)c4ccccc4)C(C)=C1C3(C)C)[C@]1(OC(C)=O)CO[C@@H]1C[C@@H]2O and give its recorded TGI.
6.5 µM

Output measured TGI for this item: COc1cc([C@@H]2c3cc4c(cc3[C@@H](NC(=O)c3ccc([N+](=O)[O-])cc3)C3COC(=O)[C@@H]32)OCO4)cc(OC)c1O (stereo not given in full)
3.62 µM

Please report the measured TGI for O=c1[nH][nH]c(=S)c(=O)[nH]1
> 100 µM

Determine its reported TGI: Cn1c2ccccc2c(=S)c2cc(NC(=O)CCCCC(=O)Nc3ccc4c(c3)c(=S)c3ccccc3n4C)ccc21
> 100 µM

Kindly indicate its recorded TGI. Item: COc1ccc(-c2oncc2-c2cc(OC)c3c(c2)OCO3)cc1
> 39.5 µM

Annotate the compound CC(C)C(/C=C/c1ccc(Cl)cc1)=N\NC(=S)NN with its measured TGI.
> 100 µM

Given the compound CCOC(=O)c1nc2ccc(C(F)(F)F)cc2nc1Nc1ccc(OC)c(OC)c1 , write its reported TGI.
> 100 µM

Quote TGI reported for Cc1ccccc1C(C#N)/C(=N/NC(=O)C(=O)NN)C(=O)Nc1cccc(C(F)(F)F)c1 (stereo not given) please.
> 100 µM

In one line, give reported TGI of the entry O=C(Nc1ccc(F)cc1)c1cc2ccc(O)cc2oc1=Nc1cccc(F)c1 .
> 100 µM

Return reported TGI. Input compound: C/C(CN1C(=O)c2ccccc2C1=O)=N\NS(C)(=O)=O
> 100 µM

Return TGI (reported value) for this compound: O=C1/C(=c2\c3ccccc3n3c(=O)c4ccccc4nc23)Nc2ccccc21
> 100 µM

Please list TGI recorded for the compound Clc1cccc(Cl)c1C1SCc2nc3ncccc3n21 (stereo not given)
> 100 µM

Specify TGI for Cc1ccc(C(=O)Nc2ccc(CP(=O)(O)O)cc2)cc1NC(=O)Nc1cc(C(=O)Nc2ccc(CP(=O)(O)O)cc2)ccc1C and stop.
> 100 µM

Retrieve TGI measured for CC1(C)OC([C@H](O)CO)C([C@H]2NCCS2)O1 (stereo not given in full) and print it.
> 100 µM

###

Exercise: for every item that follows, state its recorded GI50.
tested on: TK-10 renal; assay: NCI tumour cell line growth inhibition, 48 h

Indicate its recorded GI50; the compound in question is CSc1ccc2c(c1)C(=O)c1c-2n(CCCN=[N+]=[N-])c(=O)c2cc([N+](=O)[O-])ccc12
> 100000 nM

Read the entry Cn1cc(-c2nc(-c3cn(C)c4ncccc34)cs2)c2cc(F)ccc21 and write its reported GI50.
3010 nM

Supply recorded GI50 for COC(C(=O)[C@@H](O)[C@@H](C)O)[C@@H]1Cc2cc3cc(O[C@H]4C[C@@H](O[C@H]5C[C@@H](O)[C@H](O)C(C)O5)[C@H](O)C(C)O4)c(C)c(O)c3c(O)c2C(=O)[C@H]1O[C@H]1C[C@@H](O[C@H]2C[C@@H](O[C@H]3C[C@@H](O)[C@@H](O)C(C)O3)[C@@H](O)C(C)O2)[C@H](O)C(C)O1 (some centres not stated) here.
873 nM

Recall and state the measured GI50 for N=c1c2c(=O)n3c(nc2nc2sc4ccc(Cl)cc4n12)-c1ccccc1Sc1ccccc1-3 .
4300 nM

Let me know recorded GI50 for O=C(Nc1cccc2ccccc12)c1cc2ccccc2cc1O , thanks.
2800 nM

Respond only with GI50 recorded for O=C(Nc1ncc(Cc2ccc(Cl)cc2)s1)c1ccc2c(c1)OCCO2
245 nM

Given C#CCOc1c(OC)cc(C(=O)/C(C)=C/c2cccc(N=[N+]=[N-])c2)cc1OC , respond with its GI50.
325 nM

# credit: PubChem BioAssay (NCI)
